test system: XDR-Mtb HRESKO; assay: microbe, parasite or virus in culture; assay type: cell-based; settings: Mycobacterium tuberculosis
Form field: MIC (one value per entry).

Examples from the recorded data:
{"columns": ["Compound", "Readout Type", "Result"],
 "data": [
  ["O=[N+]([O-])c1cn2c(n1)OC[C@@H](OCc1ccc(OC(F)(F)F)cc1)C2 [PA-824, reference compound]", "MIC", "0.3 µg/mL"],
  ["Cc1ccn2c(C(=O)NCc3ccc(Oc4ccc(F)cc4)cc3)c(C)nc2c1", "MIC", "< 0.01 µg/mL"],
  ["Cc1ccc2nc(C)c(C(=O)NCc3ccccc3)n2c1", "MIC", "< 0.01 µg/mL"]
]}

Input: Given the compound Cc1ccn2c(C(=O)NCc3ncc(C(F)(F)F)cc3Cl)c(C)nc2c1 , what is its reported MIC?
Output: 0.3 µg/mL

----------
system: DS-Mtb2 (drug sensitive clinical isolate #2); assay: MIC against clinical strain DS-Mtb2; type: cell-based; details: Mycobacterium tuberculosis, 90% growth inhibition by optical density
Readout Type: MIC

Illustrative cases are given below, each with its answer.
{"columns": ["Compound", "MIC"],
 "data": [
  ["Cc1ccn2c(C(=O)NCc3ccc(Oc4ccc(F)cc4)cc3)c(C)nc2c1 [Compound 18]", "< 0.01 µg/mL"],
  ["Cc1ccn2c(C(=O)NCc3ncc(C(F)(F)F)cc3Cl)c(C)nc2c1 [Compound 13]", "0.3 µg/mL"],
  ["O=[N+]([O-])c1cn2c(n1)OC[C@@H](OCc1ccc(OC(F)(F)F)cc1)C2 [PA-824, reference compound]", "> 5 µg/mL"]
]}

Input: May I ask what MIC has been recorded for Cc1ccc2nc(C)c(C(=O)NCc3ccccc3)n2c1 [Compound 9] ?
Output: < 0.01 µg/mL
